- Tested on: OVCAR-8 ovarian
- Test Protocol: NCI-60 one-dose screen, 48 h
- Settings: 10 µM unless noted
Compounds without any hit were thinned out: in the full panel of roughly 83,000, 20% have a hit. Calls of active or inactive are those of the source. The calls were made as follows: active = growth percent below 10; inactive = the rest.
Possible outcomes: active, inactive

{"columns": ["Smiles Structure", "Qualitative Label"],
 "data": [
  ["CCOC(=O)c1c(Nc2ccccc2)nn2c(-c3ccco3)c(C#N)cnc12", "inactive"],
  ["CCOC(=O)c1c(NC(=O)c2cccc(C(F)(F)F)c2)sc2cc(O)ccc12", "inactive"],
  ["O=C(N/N=C/c1ccco1)c1[nH]c2ccc(Br)cc2c1-c1ccccc1", "active"],
  ["CN(C)S(=O)(=O)c1oc(-c2ccccc2)nc1C#N", "inactive"],
  ["O=C(CCN1C(=O)/C(=C/c2ccccc2)SC1=S)N1CCOCC1", "inactive"],
  ["O=C(Oc1ccc2ccc(=O)oc2c1)c1ccc(Cl)cc1", "inactive"],
  ["O=C(CCN1C(=O)/C(=C/c2ccccc2F)SC1=S)N1CCOCC1", "inactive"],
  ["O=C(NNc1nc2cc(F)ccc2n2c(CN3CC4(COC4)C3)ccc12)c1cnccn1", "active"],
  ["CN(C)CCCNc1c2ccccc2nc2c1oc1ccc(Cl)cc12", "inactive"]
]}
